assay: Plasma and CSF distribution of MGS0008 in rats; format: in vivo; conditions: Wistar, rat, plasma; fasted male rats; MGS0008 oral 3 mg/kg; 4 h; read-out: Plasma concentration
MEASURE NAME: concentration at 4 h

- N[C@]1(C(=O)O)[C@H]2[C@@H](C[C@@H]1F)[C@@H]2C(=O)O [MGS0008]: 138 ng/mL

* * *

assay: Pharmacokinetics of MGS0008 in rats (intravenous or oral); assay type: in vivo, rat; conditions: Wistar, rat; fasted male rats; MGS0008 oral 3 mg/kg; plasma
MEASURE NAME: AUC(0-inf) (ng·h/mL)

- N[C@]1(C(=O)O)[C@H]2[C@@H](C[C@@H]1F)[C@@H]2C(=O)O [MGS0008]: 4280
